Record set of log10(MIC) for target or system Terchoderma.
All values: base-10 log of MIC in µg/mL.

Query: So what log10(MIC) did Cc1cc2c(cc1F)SC/C(=C\Br)C2=O get with Terchoderma?
Response: 1.81

Query: Now try O=C1/C(=C\Cl)SCc2ccccc21 .
Response: 0.90

Query: Same for Cc1ccc(SC2/C(=C/Cl)CSc3ccc(C)cc32)cc1 (centres unmarked)
Response: 1.81

Query: Input O=C1/C(=C/Cl)CSc2ncccc21
Response: 1.20

Query: Here is the next compound: O=C1/C(=C/Br)CSc2ccc(F)cc21
Response: 1.20

Query: Try this compound next: Cc1cc2c(cc1F)SC/C(=C\Cl)C2=O
Response: 1.20

Query: Please give the result for O=C1/C(=C/Cl)SCc2ccc(F)cc21 too.
Response: 1.51

Query: Query O=C1/C(=C/Cl)CSc2ccc(Cl)cc21 next
Response: 1.20

Query: Okay, and O=C1/C(=C/Br)CSc2ccc(Cl)cc21 ?
Response: 1.20

Query: How about Cc1ccc2c(c1)C(Cl)/C(=C/Cl)CS2 (centres unmarked) ?
Response: 1.20

Query: Can you check O=C1/C(=C\Cl)CSc2ccc(Cl)cc21 next?
Response: 0.60

Query: Also O=C1/C(=C\Cl)CSc2ccc(F)cc21 , if possible.
Response: 1.51

Query: Now consider Cc1ccc2c(c1)C(O)/C(=C/Cl)CS2 (centres unmarked) and answer again.
Response: 1.51

Query: Now give it for O=C1/C(=C\Cl)CSc2sccc21 too.
Response: 1.20

Query: Quick one: Cc1ccc2c(c1)C(=O)/C(=C/Br)CS2
Response: 1.51

Query: Input O=C1/C(=C/Cl)CSc2ccc(F)cc21
Response: 0.90

Query: And then Cc1ccc2c(c1)C(=O)/C(=C/Cl)CS2 , what is it?
Response: 1.51

Query: Also O=C1/C(=C\Cl)CSc2ncccc21 ?
Response: 0.60

Query: # repeat for O=C1/C(=C/Cl)CSc2sccc21
Response: 0.60

Query: Now consider Cc1cc2c(cc1F)CS/C(=C\Br)C2=O and answer again.
Response: 1.20

---

Record form. Attribute: MIC. Fill in for each entry.
test system: C. tropicalis; assay: In vitro antibacterial (antifungal) test, two-fold dilution MIC; format: cell-based; settings: Candida tropicalis, RPMI 1640, culture 2-7 days
# answer = value followed by unit

Query: # get_value(readout='MIC', item= O=C1/C(=C\Cl)CSc2sccc21 )
Response: 8 µg/mL

Query: Same again, this time with O=C1/C(=C/Cl)CSc2ncccc21
Response: 16 µg/mL

Query: Next compound: O=C1/C(=C/Br)CSc2ccc(F)cc21
Response: 64 µg/mL

Query: Now this one: O=C1/C(=C/Cl)CSc2ccc(F)cc21
Response: 16 µg/mL

Query: Same thing, different compound: O=C1/C(=C\Cl)SCc2ccccc21
Response: 8 µg/mL

Query: Param item: Cc1cc2c(cc1F)SC/C(=C\Cl)C2=O
Response: 16 µg/mL

---

The following are reported MIC results, target or system C. tropicalis.

Query: GET /values?readout=MIC&item= Cc1ccc2c(c1)C(=O)CSC2 [Compound 13]
Response: 16 µg/mL

Query: Next up: O=C1/C(=C/Cl)SCc2ccccc21 [Compound 14]
Response: 32 µg/mL

Query: Same question, Cc1ccc2c(c1)C(=O)/C(=C\O)CS2 [Compound 2] this time
Response: 32 µg/mL

Query: And what about the compound Cc1ccc2c(c1)C(Cl)/C(=C/Cl)CS2 (stereo not shown) [Compound 28] ?
Response: 16 µg/mL

Query: Entry O=C1/C(=C\Cl)CSc2ccc(Cl)cc21 [Compound 21] please
Response: 16 µg/mL

Query: Let us now turn to O=C1/C(=C/Br)CSc2ccc(Cl)cc21 [Compound 10]
Response: 32 µg/mL

Query: Next entry: Cc1ccc2c(c1)C(O)/C(=C/Cl)CS2 (stereo not shown) [Compound 17]
Response: 4 µg/mL

Query: Likewise for O=C1/C(=C/Cl)SCc2ccc(F)cc21 [Compound 15] ?
Response: 4 µg/mL

Query: Same question for O=C1/C(=C\Cl)CSc2ncccc21 [Compound 27] please.
Response: 4 µg/mL

Query: Repeat with O=C1/C(=C\Cl)CSc2ccc(F)cc21 [Compound 22]
Response: 32 µg/mL

Query: Could you do the same for Cc1cc2c(cc1F)SC/C(=C\Br)C2=O [Compound 9] , please?
Response: 32 µg/mL

Query: Moving on to the next compound: Cc1ccc2c(c1)C(=O)/C(=C/Br)CS2 [Compound 8]
Response: 64 µg/mL

Query: Moving on to the next compound: O=C1/C(=C/Cl)CSc2ccc(Cl)cc21 [Compound 4]
Response: 8 µg/mL

Query: Ok, now Cc1ccc2c(c1)C(=O)/C(=C/Cl)CS2 [Compound 5]
Response: 32 µg/mL

Query: Cc1cc2c(cc1F)CS/C(=C\Br)C2=O [Compound 16] ?
Response: 32 µg/mL

Query: Next compound: Cc1ccc2c(c1)C(=O)CCS2 [Compound 1]
Response: 32 µg/mL

Query: Entry OC1/C(=C/Cl)SCc2ccccc21 (stereo not shown) [Compound 20] please
Response: 32 µg/mL

Query: Entry to check: O=C1/C(=C/Cl)CSc2sccc21 [Compound 19]
Response: 16 µg/mL

Query: Next compound up: O=C1/C(=C\O)CSc2ccc(F)cc21 [Compound 3]
Response: 32 µg/mL

---

test system: A375; test: In vitro anticancer MTT experiment; format: cell-based; details: Homo sapiens, A-375, concentration 5 ug/ml, 48 h or 72 h, read-out: inhibition ratio A375
readout: inhibition at 5 µg/mL (%)
// return numeric value only (unit: %, not printed)

Query: For O=C1/C(=C\Cl)CSc2sccc21 [Compound 24] , what is its reported inhibition at 5 µg/mL?
Response: 32.5

Query: Continue with Cc1ccc2c(c1)C(=O)/C(=C/Cl)CS2 [Compound 5]
Response: 65.9

Query: Moving on to Cc1cc2c(cc1F)CS/C(=C\Br)C2=O [Compound 16]
Response: 30.5

Query: Another compound to check: Cc1ccc(S/C=C2\CSc3ccc(F)cc3C2=O)cc1F [Compound 12]
Response: 60.4

Query: Also, Cc1cc2c(cc1F)SC/C(=C\Cl)C2=O [Compound 6] please.
Response: 65.8

Query: Please do the same for O=C1/C(=C\Cl)CSc2ccc(Cl)cc21 [Compound 21] as well.
Response: 56.9

Query: Input Cc1ccc(SC2/C(=C/Cl)CSc3ccc(C)cc32)cc1 (centres unmarked) [Compound 29]
Response: 30.2

Query: // repeat for O=C1/C(=C/Cl)CSc2ccc(Cl)cc21 [Compound 4] and report
Response: 50.4

Query: Moving on to Cc1ccc(S/C=C2/CSc3ccc(F)cc3C2=O)cc1F [Compound 23]
Response: 49.2

Query: Queued: Cc1ccc2c(c1)C(=O)CSC2 [Compound 13]
Response: 74.3

Query: Further, for OC1/C(=C/Cl)SCc2ccccc21 (centres unmarked) [Compound 20] ?
Response: 50.2

Query: Item: O=C1/C(=C/Cl)CSc2ncccc21 [Compound 18]
Response: 67.8

Query: Okay, and O=C1/C(=C/Cl)SCc2ccccc21 [Compound 14] ?
Response: 45.5

Query: Note, next up: Cc1ccc2c(c1)C(Cl)/C(=C/Cl)CS2 (centres unmarked) [Compound 28]
Response: 52.7

Query: What do you get for O=C1/C(=C/Br)CSc2ccc(F)cc21 [Compound 11] ?
Response: 47

Query: How about O=C1/C(=C/Cl)CSc2ccc(F)cc21 [Compound 7] ?
Response: 56

Query: Can you handle O=C1/C(=C/Cl)SCc2ccc(F)cc21 [Compound 15] next?
Response: 60.2

Query: What do we get for Cc1ccc2c(c1)C(=O)/C(=C/Br)CS2 [Compound 8] ?
Response: 37.9

Query: Next up: O=C1/C(=C/Cl)CSc2sccc21 [Compound 19]
Response: 46.2

Query: # iterate: O=C1/C(=C\Cl)CSc2ccc(F)cc21 [Compound 22]
Response: 56.7

---

test system: HTB-131MDA-MB-453; experiment: In vitro anticancer MTT experiment; assay type: cell-based; settings: concentration 5 ug/ml, 48 h or 72 h, read-out: inhibition ratio HTB-131MDA-MB-453
Assignment: determine reported inhibition at 5 µg/mL for the given compounds.
Express the result in % but write the number alone.

Query: Observed inhibition at 5 µg/mL on HTB-131MDA-MB-453 for OC1/C(=C/Cl)SCc2ccccc21 (centres unmarked) [Compound 20] , please.
Response: 25.8

Query: Similarly, O=C1/C(=C/Cl)SCc2ccc(F)cc21 [Compound 15] ?
Response: 58

Query: Item: O=C1/C(=C/Cl)CSc2ncccc21 [Compound 18]
Response: 77.1

Query: Check O=C1/C(=C/Br)CSc2ccc(F)cc21 [Compound 11] too.
Response: 45.6

Query: Now consider O=C1/C(=C\Cl)CSc2ccc(Cl)cc21 [Compound 21] and answer again.
Response: 55.6
